- MEASUREMENT_PROTOCOL: basal RPMI8226 mitochondrial membrane potential changes, profiling panel, cell-based, JC-1 fluorescence, 24 h, 100 nL compound (AID 1169); note: test concentration not given here
- CONDITION_LABEL: RPMI8226 myeloma, JC-1 mitochondrial potential fluorescence, higher = more signal
Would you mind labelling by z-score? At or over -0.7 is Criterion met, under is Criterion not met.

Known results for compounds:
COMPOUND	LABEL
COCCOC(=O)N1C(=O)[C@@]2(c3cc(C#CC4=CCCCC4)ccc31)[C@H](c1ccc(O)cc1)N1[C@H](c3ccccc3)[C@H](c3ccccc3)OC(=O)[C@H]1[C@@H]2C(=O)N1CCN(c2ncccn2)CC1	Criterion met
CC(c1ccccc1)C(O)C1C=CC2C(=O)N(c3ccccc3)C(=O)C2N1Nc1ccc([N+](=O)[O-])cc1 (stereo unspecified)	Criterion not met
COC(=O)[C@@]1(Cc2ccc(F)cc2)[C@H]2c3cc(C(=O)N(C)C)n(Cc4cc(F)cc5c4OCOC5)c3C[C@H]2CN1C(=O)c1ccccc1	Criterion not met
C=CCC(OC(C)=O)[C@@H]1[C@@H](N(Cc2cccc3ccccc23)C(=O)c2cccc3ccccc23)c2cc(OCCCO)ccc2N1C(=O)c1ccc(-c2ccccc2)cc1 (stereo partly specified)	Criterion met
C[C@H]1NC(=O)[C@@]23C(=O)N[C@@H](Cc4ccccc4)C2[C@H](C)[C@@]2(C)O[C@H]2C3/C=C/C/C=C\CNC(=O)[C@H](Cc2ccccc2)NC1=O (stereo partly specified)	Criterion met
COc1ccc([Si](C)(C)[C@@H]2[C@@H](CC(=O)N(CCO)Cc3ccccc3)O[C@]3(C(=O)N(c4ccccc4)c4ccccc43)[C@H]2C)cc1	Criterion not met
O=C1C=C(c2ccccc2)C(=O)c2ccc([C@H]3Oc4ccccc4S(=O)(=O)N4CCC[C@@H]34)cc21	Criterion not met
CCCCC=C[C@@H](NC(=O)c1ccc(-c2ccccc2)cc1)c1ccccc1	Criterion not met
[N-]=[N+]=NCc1ccccc1[C@@H]1OC(c2ccc(OCCCO)cc2)=N[C@]1(CCS(=O)(=O)c1ccccc1)C(=O)NCC(O)CO (stereo partly specified)	Criterion met
COCCOC(=O)N1C(=O)[C@@]2(c3cc(C#CC4=CCCCC4)ccc31)[C@H](c1ccccc1OCCO)N1[C@H](c3ccccc3)[C@H](c3ccccc3)OC(=O)[C@H]1[C@@H]2C(=O)Nc1nc2ccccc2s1	Criterion not met

Now look at this entry.
Query: // inclusive: z-score at least -0.7? input: COC(=O)c1cn(C[C@@H](Cc2ccccc2)NC(=O)N[C@H](CO)CCc2oc(C(C)=O)c(C(=O)OC)c2C(=O)OC)nn1
Result: Criterion met

---

- TEST_TARGET: E3 ubiquitin-protein ligase XIAP (Homo sapiens)
- MEASUREMENT_PROTOCOL: XIAP binders, primary screen, biophysical, small-molecule microarray, fluorescence 635 nm (AID 1181);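 note: score merges 667 nm emission and signal to noise over triplicate slides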
- CONDITION_LABEL: small-molecule microarray binding, higher = more signal
# key: entry, value: composite z-score
// no unit string in output, number only

These solved cases illustrate the format of a correct answer.
> print(dat)
                                smiles.text  measured.attribute  experimental.value
1  COc1ccc(C#Cc2ccc3c(c2)[C@]2(C(=O)N3)[C@H](c3ccc(O)cc3)N3[C@H](c4ccccc4)[C@H](c4ccccc4)OC(=O)[C@H]3[C@@H]2C(=O)O)cc1   composite z-score               0.126
2  COCC1=C2[C@@H](CCc3ccccc3)OB(O)C[C@@H]2[C@@H]2C(=O)C=CC(=O)[C@@H]2C1   composite z-score               0.906

Query: Output measured composite z-score for this item: CC(C)C(=C=CC[C@H](O)c1cccc(OCCO)c1)C[C@H](O)c1cc(Cl)cc(Cl)c1O
Result: -0.16

---

- Test system: Chordin-like protein 2 (CHRDL2)
- MEASUREMENT_PROTOCOL: CHRDL2 small-molecule binders, primary screen, biochemical, small-molecule microarray, 635 nm fluorescence (AID 1126);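 note: printed compound slides probed with Chrdl2 protein at 4 µg/mL for 1 h at 4 C; score merges 667 nm emission intensity with signal to noise over three replicate slides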
- CONDITION_LABEL: small-molecule microarray binding, fluorescence 635 nm; higher = more signal
composite z-score values by entry
The answer should be a number; do not append a unit.

SMILES_TEXT	TEST_TARGET	EXPERIMENTAL_VALUE
[N-]=[N+]=Nc1ccccc1[C@H]1OC(c2ccc(OCCCO)cc2)=N[C@@]1(Cc1ccccc1)C(=O)N1CCCCC1	Chordin-like protein 2 (CHRDL2)	0.618
Cc1ccc(S[C@]2(C(=O)O)CC(=O)N(C3Cc4ccccc4C3)[C@@H]2c2ccc(CO)cc2)cc1	Chordin-like protein 2 (CHRDL2)	-1.8
CC(C)N1C(=O)c2ccccc2[C@@H](C(=O)NC2CC2)[C@@H]1c1ccc(CO)cc1	Chordin-like protein 2 (CHRDL2)	0.593

Query: Indicate the recorded composite z-score value for this compound: COC(=O)c1c2oc(c1C(=O)OC)C(=O)N(C)Cc1cn(nn1)C[C@H](Cc1ccccc1)NC(=O)N[C@H](CO)CC2
Result: -0.516

Query: Specify reported composite z-score for the compound shown: COC(=O)[C@@]1(Cc2ccc(OC)cc2)[C@H]2c3cc(C(=O)N4CCCC4)n(Cc4c(-c5ccccc5)noc4C)c3C[C@H]2CN1C(=O)c1ccccc1
Result: -0.748

Query: Fill in reported composite z-score for this entry: COCCOC(=O)N1C(=O)[C@@]2(c3cc(C#CC4=CCCCC4)ccc31)[C@H](c1ccc(OCCO)cc1)N1[C@H](c3ccccc3)[C@H](c3ccccc3)OC(=O)[C@H]1[C@@H]2C(=O)NC[C@H](O)c1ccccc1
Result: 1.41

---

- TEST_TARGET: Calmodulin-1 (Homo sapiens)
- MEASUREMENT_PROTOCOL: calcium-bound CALM1 binders on microarrays, profiling panel, artefact control for SMM control-protein annotation, biochemical, small-molecule microarray, Cy5-labelled CALM1, plus calcium (AID 1112);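 note: score merges spot fluorescence with signal to noise from triplicate slides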
- CONDITION_LABEL: Cy5-CALM1 binding fluorescence, higher = more signal
just bin them by composite z-score: label 0 (below -0.2), label 1 (-0.2 to below 0.5), label 2 (0.5 or more)

Observe how each entry below is paired with its result.
MOLECULE	TEST_TARGET	LABEL
O=C1O[C@H](c2ccccc2)[C@H](c2ccccc2)N2[C@H]1[C@@H](C(=O)N1CCN(c3ncccn3)CC1)[C@]1(C(=O)Nc3ccc(C#CC4(O)CCCCCC4)cc31)[C@H]2c1ccc(OCCO)cc1	Calmodulin-1 (Homo sapiens)	label 2
[N-]=[N+]=Nc1ccccc1C[C@]1(C(=O)N2CCOCC2)N=C(c2ccc(OCCCO)cc2)O[C@H]1c1ccccc1	Calmodulin-1 (Homo sapiens)	label 1
CCOC(=O)C[C@H]1[C@H](OC(=O)c2cc3ccccc3oc2=O)[C@@H](NC(=O)Cc2ccc(OC)cc2)c2cc(OCCCO)ccc2N1C(=O)c1ccc2ccccc2n1	Calmodulin-1 (Homo sapiens)	label 0
CCOC(=O)C[C@H]1[C@H](OC(=O)Cc2ccc3c(c2)OCO3)[C@@H](NC(=O)Cc2ccc(OC)cc2)c2cc(OCCCO)ccc2N1C(=O)c1ccc2ccccc2n1	Calmodulin-1 (Homo sapiens)	label 1
COC(=O)c1c(CC[C@@H](CO)NC(=O)N2CCC[C@H]2Cn2cc(Cc3ccccc3)nn2)oc(C(C)=O)c1C(=O)OC	Calmodulin-1 (Homo sapiens)	label 0

Query: For this molecule, which bin applies? COc1ccccc1CN1C(=O)c2ccccc2[C@@]2(Cc3ccccc3N(CC(F)(F)F)C2=O)[C@@H]1c1ccc(CO)cc1
Result: label 0

Query: Please report the category associated with C=CC[C@]1(C(=O)NCCN2CCOCC2)N=C(c2ccc(OCCCO)cc2)O[C@H]1c1ccccc1CN=[N+]=[N-] , nothing else.
Result: label 0

---

- TEST_TARGET: Fibroblast growth factor 2 (Homo sapiens) (UniProt P09038)
- Sequence (P09038 whole entry, looked up): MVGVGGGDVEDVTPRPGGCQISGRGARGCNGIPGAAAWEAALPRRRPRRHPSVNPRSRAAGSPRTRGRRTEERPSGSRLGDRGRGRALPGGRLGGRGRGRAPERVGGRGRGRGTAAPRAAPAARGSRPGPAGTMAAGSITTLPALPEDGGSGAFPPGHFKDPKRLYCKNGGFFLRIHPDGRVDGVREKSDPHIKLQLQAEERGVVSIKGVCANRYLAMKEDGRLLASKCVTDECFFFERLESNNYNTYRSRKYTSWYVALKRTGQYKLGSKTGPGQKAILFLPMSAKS
- MEASUREMENT_PROTOCOL: FGF2 binders on small-molecule microarrays, primary screen, biochemical, small-molecule microarray, 635/667 nm fluorescence (AID 1133)
- CONDITION_LABEL: small-molecule microarray binding, FGF2, fluorescence 635/667; higher = more signal
Cut-off -0.2 on composite z-score, inclusive. At or above means y; below means n.

COMPOUND	LABEL
Cc1ccc(S[C@]2(C(=O)NCCCN(C)C)CC(=O)N(C3CCCCC3)[C@@H]2c2ccc(CO)cc2)cc1	n
O=C1O[C@H](c2ccccc2)[C@H](c2ccccc2)N2[C@H]1[C@@H](C(=O)Nc1nc3ccccc3s1)[C@]1(C(=O)Nc3ccccc31)[C@H]2c1ccc(OCCO)cc1	y

Query: // inclusive: composite z-score at least -0.2? input: COCCOC(=O)N1C(=O)[C@@]2(c3cc(C#CC4=CCCCC4)ccc31)[C@H](C(N)=O)[C@H]1C(=O)O[C@H](c3ccccc3)[C@H](c3ccccc3)N1[C@@H]2c1ccccc1OCCO
Result: y

Query: Textbook exercise: given the entry COc1ccc([Si](C)(C)[C@H]2[C@H](CC(=O)N(CCO)Cc3ccccc3)O[C@@]3(C(=O)N(Cc4cccc(N5CCOC5=O)c4)c4ccccc43)[C@@H]2C)cc1 , state whether its composite z-score is greater than or equal to -0.2.
Result: y

Query: Is reported composite z-score greater than or equal to -0.2 here: CN1C(=O)C2C=CC(C(O)c3cccc(O)c3)N(Nc3ccccc3)C2C1=O (stereo not given)
Result: y
